System: Entamoeba histolytica
Assay: Antiamoebic activity against trophozoite stage of Entamoeba histolytica HM-1:IMSS assessed as growth inhibition after 48 hrs by microdilution method
Format: functional, organism-based
Assay Setup: Entamoeba histolytica, HM-1:IMSS, 48 h; read-out: IC50
Label true (1) when IC50 < 3 µM; otherwise false (0).

Prompt: Regarding COC(=O)c1ccc2c(c1)[n+]([O-])c(C(=O)c1ccccc1)c(C(F)(F)F)[n+]2[O-] , kindly confirm whether its IC50 is beneath 3 µM.
Response: false (0)

Prompt: Regarding CCOC(=O)c1c(C)[n+]([O-])c2ccc(C(=O)OC)cc2[n+]1[O-] , kindly confirm whether its IC50 is beneath 3 µM.
Response: true (1)

Prompt: Regarding CCOC(=O)c1ccc2c(c1)[n+]([O-])c(C(=O)OCC)c(C)[n+]2[O-] , kindly confirm whether its IC50 is beneath 3 µM.
Response: false (0)

Prompt: Regarding CCOC(=O)c1ccc2c(c1)[n+]([O-])c(C(=O)c1ccco1)c(C(F)F)[n+]2[O-] , kindly confirm whether its IC50 is beneath 3 µM.
Response: false (0)

Prompt: Regarding CC(=O)Oc1ccccc1C(=O)Nc1ncc([N+](=O)[O-])s1 [NITAZOXANIDE] , kindly confirm whether its IC50 is beneath 3 µM.
Response: false (0)

Prompt: Regarding CCOC(=O)c1ccc2c(c1)[n+]([O-])c(C(=O)OC)c(C)[n+]2[O-] , kindly confirm whether its IC50 is beneath 3 µM.
Response: true (1)

Prompt: Regarding CCOC(=O)c1ccc2c(c1)[n+]([O-])c(C(=O)CC)c(C(F)(F)F)[n+]2[O-] , kindly confirm whether its IC50 is beneath 3 µM.
Response: false (0)

Prompt: Regarding CCOC(=O)c1ccc2c(c1)[n+]([O-])c(C(=O)OCC)c(-c1ccccc1)[n+]2[O-] , kindly confirm whether its IC50 is beneath 3 µM.
Response: false (0)

Prompt: Regarding CCOC(=O)c1ccc2c(c1)[n+]([O-])c(C(N)=O)c(C)[n+]2[O-] , kindly confirm whether its IC50 is beneath 3 µM.
Response: true (1)

Prompt: Regarding CCOC(=O)c1ccc2no[n+]([O-])c2c1 , kindly confirm whether its IC50 is beneath 3 µM.
Response: false (0)

Prompt: Regarding COC(=O)c1ccc2c(c1)[n+]([O-])c(C(=O)c1ccccc1)c(C)[n+]2[O-] , kindly confirm whether its IC50 is beneath 3 µM.
Response: false (0)

Prompt: Regarding CCOC(=O)c1ccc2c(c1)[n+]([O-])c(C(C)=O)c(C(F)(F)F)[n+]2[O-] , kindly confirm whether its IC50 is beneath 3 µM.
Response: true (1)

Prompt: Regarding COC(=O)c1ccc2no[n+]([O-])c2c1 , kindly confirm whether its IC50 is beneath 3 µM.
Response: false (0)

Prompt: Regarding [O-][n+]1onc2ccccc21 [BENZO[C][1,2,5]OXADIAZOLE 1-OXIDE] , kindly confirm whether its IC50 is beneath 3 µM.
Response: false (0)

Prompt: Regarding CCOC(=O)c1ccc2c(c1)[n+]([O-])c(C(=O)c1ccccc1)c(C)[n+]2[O-] , kindly confirm whether its IC50 is beneath 3 µM.
Response: true (1)

Prompt: Regarding COC(=O)c1ccc2c(c1)[n+]([O-])c(C(=O)c1ccc3ccccc3c1)c(C(F)(F)F)[n+]2[O-] , kindly confirm whether its IC50 is beneath 3 µM.
Response: false (0)

Prompt: Regarding COC(=O)c1ccc2c(c1)[n+]([O-])c(C(=O)Nc1ccccc1)c(C)[n+]2[O-] , kindly confirm whether its IC50 is beneath 3 µM.
Response: false (0)

Prompt: Regarding COC(=O)c1ccc2c(c1)[n+]([O-])c(C(C)=O)c(C)[n+]2[O-] , kindly confirm whether its IC50 is beneath 3 µM.
Response: true (1)

Prompt: Regarding COC(=O)c1ccc2c(c1)[n+]([O-])c(C(=O)C(C)C)c(C(F)(F)F)[n+]2[O-] , kindly confirm whether its IC50 is beneath 3 µM.
Response: true (1)

Prompt: Regarding Cc1ncc([N+](=O)[O-])n1CCO [METRONIDAZOLE] , kindly confirm whether its IC50 is beneath 3 µM.
Response: false (0)

Hey, just so you know, these numbers are from ChEMBL document CHEMBL2413057.
